Reference source: patent US20140090094A1

study-system: OAT2r (Rattus norvegicus, UniProt Q5RLM2)
Construct: expressed in transfected cells
procedure-text: 1 min uptake into 293 cells expressing OAT2 from rat
Format: cell-based
particulars: 1 min uptake, 0.1 μmol/l radiotracer or 10 μmol/l unlabeled compound

compound	transport by OAT2r (in words)
O=C(O)c1c[nH]c(=O)[nH]c1=O	transported efficiently
C[N+]1(C)CCC[C@H]1C(=O)[O-] [stachydrine]	no transport
Cc1cc2nc3c(=O)[nH]c(=O)nc-3n(C[C@H](O)[C@H](O)[C@H](O)CO)c2cc1C	no transport
O=C(O)c1[nH]c(=O)[nH]c(=O)c1F	transported efficiently

----------
study-system: OAT2r (Rattus norvegicus)
Construct: expressed in transfected cells
procedure-text: trans-stimulation of efflux of 3H-orotic acid via OAT2r
Assay type: cell-based
particulars: 1 mmol/l compound in uptake buffer, 1 min, preloaded cells
value-type: trans-stimulation of efflux of 3H-orotic acid (in words)

compound	value-observed
O=C(O)CC(O)C(=O)O (stereo not shown) [malate]	rejects
CC(O)C(=O)O (stereo not shown) [lactate]	rejects

----------
study-system: OAT2r (Rattus norvegicus)
Construct: expressed in transfected cells
Sequence (Q5RLM2 1-535): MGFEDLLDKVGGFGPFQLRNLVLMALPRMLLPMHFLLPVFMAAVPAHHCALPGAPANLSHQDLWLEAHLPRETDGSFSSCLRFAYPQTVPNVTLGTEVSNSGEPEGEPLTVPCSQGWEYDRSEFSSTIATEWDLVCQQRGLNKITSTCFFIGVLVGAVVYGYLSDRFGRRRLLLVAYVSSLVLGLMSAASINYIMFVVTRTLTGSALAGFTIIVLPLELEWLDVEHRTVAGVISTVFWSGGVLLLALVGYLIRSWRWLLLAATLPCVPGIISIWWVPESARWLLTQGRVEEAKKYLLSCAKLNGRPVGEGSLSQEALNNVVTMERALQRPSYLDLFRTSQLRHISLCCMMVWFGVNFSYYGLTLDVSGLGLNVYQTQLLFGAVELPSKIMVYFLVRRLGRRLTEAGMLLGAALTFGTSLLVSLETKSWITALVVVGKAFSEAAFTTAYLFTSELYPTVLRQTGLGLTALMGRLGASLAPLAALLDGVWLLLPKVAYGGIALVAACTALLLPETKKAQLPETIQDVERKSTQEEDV
procedure-text: 1 min uptake into 293 cells expressing OAT2 from rat;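 note: uptake at 37 °C, read by liquid scintillation counting or LC-ESI-MS/MS, carrier-mediated part as induced-minus-uninduced expression difference corrected for baseline content, protein by BCA assay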
Assay type: cell-based
particulars: 1 min uptake, 0.1 μmol/l radiotracer or 10 μmol/l unlabeled compound
value-type: transport by OAT2r (in words)

compound	value-observed
O=C1CC[C@@H](C(=O)O)N1	no transport
O=C(O)c1cccnc1	no transport
Cc1ncc(C[n+]2csc(CCO)c2C)c(N)n1	no transport
NC(=O)c1cccnc1 [nicotinamide]	no transport
Nc1ccc(C(=O)O)cc1	no transport
CN(CC(=O)O)C(=N)N	no transport
O=C1C[C@@H](C(=O)O)NC(=O)N1 [L-dihydroorotic acid]	no transport
O=C(O)c1cc(=O)c2ccccc2[nH]1	no transport
O=C(O)CC1NC(=O)NC1=O (stereo not drawn)	no transport
O=C(O)c1ccc[n+]([C@@H]2O[C@H](COP(=O)(O)O)[C@@H](O)[C@H]2O)c1 [nicotinic acid mononucleotide]	no transport
O=C1CC(=O)NC(=O)N1	no transport
N=C(N)NCC(=O)O	no transport

----------
study-system: OAT2r (Rattus norvegicus)
Construct: expressed in transfected cells
Sequence (Q5RLM2 1-535): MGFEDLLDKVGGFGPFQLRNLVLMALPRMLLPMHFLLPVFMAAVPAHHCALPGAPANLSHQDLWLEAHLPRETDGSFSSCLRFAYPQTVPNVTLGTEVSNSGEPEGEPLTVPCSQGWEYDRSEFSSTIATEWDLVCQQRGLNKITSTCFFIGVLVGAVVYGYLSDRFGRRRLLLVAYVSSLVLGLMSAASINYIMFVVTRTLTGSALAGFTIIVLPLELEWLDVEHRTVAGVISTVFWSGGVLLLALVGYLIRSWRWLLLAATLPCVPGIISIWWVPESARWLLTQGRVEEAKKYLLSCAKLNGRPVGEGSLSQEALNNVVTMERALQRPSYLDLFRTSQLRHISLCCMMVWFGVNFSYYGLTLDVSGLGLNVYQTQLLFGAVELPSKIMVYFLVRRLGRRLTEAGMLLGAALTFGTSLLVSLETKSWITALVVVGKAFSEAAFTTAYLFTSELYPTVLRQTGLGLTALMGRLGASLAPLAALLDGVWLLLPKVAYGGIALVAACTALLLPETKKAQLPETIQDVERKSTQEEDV
procedure-text: 24 h accumulation in lysates of OAT2r-expressing versus control cells (LC-MS/MS)
Type: cell-based
particulars: 24 h incubation, compound at 100 μmol/l
value-type: increase in OAT2r cell lysates versus control cells (factor f)

compound	study-system	value-observed
CC1=NCC[C@@H](C(=O)O)N1	OAT2r (Rattus norvegicus)	1.2
Cc1cc2nc3c(=O)[nH]c(=O)nc-3n(C[C@H](O)[C@H](O)[C@H](O)CO)c2cc1C	OAT2r (Rattus norvegicus)	1.2
Nc1cccc(C(=O)O)c1	OAT2r (Rattus norvegicus)	1.4
CCN(CC)CCC(=O)O	OAT2r (Rattus norvegicus)	1.1
C[N+](C)(C)C[C@H](O)CC(=O)[O-]	OAT2r (Rattus norvegicus)	1.0
Nc1ccccc1C(=O)O	OAT2r (Rattus norvegicus)	1.1
Nc1ccc(C(=O)O)cc1	OAT2r (Rattus norvegicus)	1.1
NCC1(CC(=O)O)CCCCC1	OAT2r (Rattus norvegicus)	1.2
C[N+](C)(C)CC(=O)[O-]	OAT2r (Rattus norvegicus)	1.0
C[N+]1(C)CCC[C@H]1C(=O)[O-] [stachydrine]	OAT2r (Rattus norvegicus)	1.2
O=C(O)c1cccnc1C(=O)O	OAT2r (Rattus norvegicus)	2.7
